meta.source: paper PMC11808136

test: in vitro; settings: human
property_measured: CC50

input: What value of measured CC50 is listed for O=C(Nc1cc(C(F)(F)F)cc(C(F)(F)F)c1)c1cc(Cl)ccc1O [IMD 0354] ?
output: 1.1 µM

input: For the compound O=C(NOC[C@H](O)CO)c1ccc(F)c(F)c1Nc1ccc(I)cc1F [PD0325901] , what CC50 is on record?
output: > 100 µM

input: Item Cc1nc(Nc2ncc(C(=O)Nc3c(C)cccc3Cl)s2)cc(N2CCN(CCO)CC2)n1 [Dasatinib] has what recorded CC50?
output: > 100 µM

input: For the compound Cc1ccc(-n2nc(C(C)(C)C)cc2NC(=O)Nc2ccc(OCCN3CCOCC3)c3ccccc23)cc1 [BIRB 796, Doramapimod] , what CC50 is on record?
output: > 100 µM
